test system: β-galactosidase in CMV-LacZ C2C12 myoblasts; test: CMV-LacZ secondary screen in C2C12 myoblasts (β-Gal stabilizing assay); type: cell-based, mouse; settings: 5 uM; CMV-LacZ C2C12 myoblasts
ASSAY ENDPOINT: CMV-LACZ in Myoblasts (β-galactosidase activity relative to DMSO)

COMPOUND	REPORTED
c1ccc(-c2cc(-c3nc4ccccc4[nH]3)c3ccccc3n2)cc1 [MLS000554416-01]	0.8594
Cc1cc([N+](=O)[O-])ccc1NC(=O)C(C)N1CCN(c2ccccn2)CC1 (stereo not shown) [MLS000764729-01]	1.0259
O=c1[nH]c2ccccc2nc1-c1c[nH]c2ccccc12 [MLS001181936-01]	0.7292
CCn1c(=O)c2cc(C(=O)N(C)c3cc(C)ccc3OC)sc2c2ccccc21 [MLS000731285-01]	1.0851

====

Listing of recorded CMV-LACZ in Myoblasts (β-galactosidase activity relative to DMSO) by entry.
system: β-galactosidase in CMV-LacZ C2C12 myoblasts; experiment: CMV-LacZ secondary screen in C2C12 myoblasts (β-Gal stabilizing assay); format: cell-based, mouse; details: 1 uM; CMV-LacZ C2C12 myoblasts
ASSAY ENDPOINT: CMV-LACZ in Myoblasts (β-galactosidase activity relative to DMSO)

1. CC(C)Oc1cccc(C(=O)Nc2ccc(CN3CCOCC3)cc2)c1 1.1631
2. Cn1cc(CN(CCO)Cc2cccs2)c(-c2ccccc2F)n1 0.7744
3. O=C(O)c1csc(-c2cccs2)n1 1.0546
4. Cc1ccc(C(=O)N2CCN(S(=O)(=O)N3CCOCC3)CC2)cc1 1.1477
5. Cc1nc(Nc2ccccc2F)c2oc3ccccc3c2n1 0.8837

====

Listing of recorded CMV-LACZ in Myotubes, signal relative to DMSO by entry.
test system: β-galactosidase in CMV-LacZ C2C12 myotubes; test: CMV-LacZ secondary screen in C2C12 myotubes (β-Gal stabilizing assay); type: cell-based, mouse; settings: 1 uM; C2C12 CMV-LacZ myotubes; fold relative to DMSO
ASSAY ENDPOINT: CMV-LACZ in Myotubes, signal relative to DMSO

1. O=c1[nH]c(SCc2ccc(Cl)cc2)nc2ccsc12 0.8600
2. Cc1ccccc1-n1c(Cc2cccs2)n[nH]c1=S 1.2622
3. NS(=O)(=O)c1ccc(NC(=O)CN2CCc3ccccc32)cc1 0.8933
4. COC(=O)c1ccccc1NC(=O)CSc1nc(O)c(-c2ccccc2)c(=O)[nH]1 0.9295
5. Cc1ccccc1S(=O)(=O)N1C[C@H]2CON(C)[C@H]2C[C@H]1c1cccc(-c2ccccc2)c1 1.1800
6. CCC(CC)C(=O)Nc1c(C(=O)N2CCN(c3ccccc3)CC2)oc2ccccc12 0.8152
7. COc1cc(C=O)ccc1OCC(=O)Nc1ccc2c(c1)OCO2 1.4943
8. Cc1ccccc1NC(=O)NCCCN1CCN(C)CC1 0.8756

====

system: β-galactosidase in CMV-LacZ C2C12 myoblasts; assay: CMV-LacZ secondary screen in C2C12 myoblasts (β-Gal stabilizing assay); assay type: cell-based, mouse; details: 40 uM; SU9516 analogs, C2C12 CMV-LacZ, N=2
Listing of recorded CMV-LACZ in Myoblasts, value relative to DMSO by entry.
ASSAY ENDPOINT: CMV-LACZ in Myoblasts, value relative to DMSO

COMPOUND	REPORTED
O=Nc1c(-c2c(O)[nH]c3ccccc23)[nH]c2ccccc12 [NCGC00015545-02]	0.2480
O=C1Nc2ccccc2/C1=C/c1cnc(-c2ccccc2)[nH]1	1.1889
COc1ccc(C(=O)/C=C2/C(=O)Nc3ccccc32)cc1	2.2215
Cc1ccc2c(c1)/C(=C/c1ccc(F)cc1)C(=O)N2	0.3322
Cc1[nH]c(/C=C2\C(=O)Nc3ccc(S(=O)(=O)Cc4c(Cl)cccc4Cl)cc32)c(C)c1C(=O)C1CCCN1CN1CCCC1 (centres unmarked)	0.4237
Cc1ncc(/C=C2\C(=O)Nc3ccccc32)[nH]1	1.1026
O=Nc1c(-c2c(O)[nH]c3ccccc23)[nH]c2ccccc12 [NCGC00015545-07]	0.3383
O=Nc1c(-c2c(O)[nH]c3cc(Br)ccc23)[nH]c2ccccc12	0.3627
O=C1Nc2ccccc2/C1=C/c1ccccc1Cl	0.6233
COc1ccc(C(=O)/C=C2/C(=O)Nc3ccccc32)cc1OC	0.6488
Cc1cc(C)c(/C=C2\C(=O)Nc3ccccc32)[nH]1 [NCGC00094381-05]	0.8220
NC(=O)COc1ccc(C(=O)/C=C2/C(=O)Nc3ccccc32)cc1	0.1793
CC(C)Oc1ccc(C(=O)/C=C2/C(=O)Nc3ccccc32)cc1	0.1781
CCN(CC)CCNC(=O)c1c(C)[nH]c(/C=C2\C(=O)Nc3ccc(F)cc32)c1C [NCGC00164631-04]	0.1827
O=C1Nc2ccccc2/C1=C/c1ccc([N+](=O)[O-])cc1	0.7383
CCN(CC)CCNC(=O)c1c(C)[nH]c(/C=C2\C(=O)Nc3ccc(F)cc32)c1C [NCGC00164631-03]	0.1767
CN1CCN(c2ccccc2/C=C2/C(=O)Nc3ccccc32)CC1	0.4170
Cc1ccccc1/C=C1\C(=O)Nc2ccc(F)cc21	0.9437
CCOc1cc2c3c(c1)C(C)=CC(C)(C)N3C(=O)C2=O	0.8779
COc1cc(OC)c(/C=C2/C(=O)Nc3ccccc32)c(OC)c1	0.5873
O=C1C(c2c(O)[nH]c3ccccc23)=Nc2ccccc21	1.2873
Cc1[nH]c(C=C2C(=O)Nc3ccccc32)c(C)c1CCC(=O)O	3.3097
O=C(O)COc1ccccc1/C=C1\C(=O)Nc2ccc(Br)cc21	0.9563
Cc1ccc2c(c1)/C(=C/c1ccccc1F)C(=O)N2	0.7619
COc1ccc2c(c1)/C(=C\c1cccc(/C=C3/C(=O)Nc4ccc(OC)cc43)n1)C(=O)N2	0.2779
Cc1cc(C)c(/C=C2\C(=O)Nc3ccccc32)[nH]1 [NCGC00094381-04]	0.9697
O=C1Nc2ccccc2/C1=C\c1cccn1-c1ccc(OC(F)(F)F)cc1	1.3937
COc1ccc2c(c1)C(=C(C#N)C#N)C(=O)N2CCc1ccccc1	1.6644
CCc1nc(/C=C2\C(=O)Nc3ccccc32)c[nH]1	0.9133

====

test system: β-galactosidase in CMV-LacZ C2C12 myoblasts; experiment: CMV-LacZ secondary screen in C2C12 myoblasts (β-Gal stabilizing assay); type: cell-based, mouse; conditions: 1 uM; CMV-LacZ C2C12 myoblasts
ASSAY ENDPOINT: CMV-LACZ in Myoblasts (β-galactosidase activity relative to DMSO)

MOLECULE	MEASURED ON	REPORTED
O=C(c1ccccc1)N1CCN(S(=O)(=O)c2cccs2)CC1	β-galactosidase in CMV-LacZ C2C12 myoblasts	1.0406
Cc1ccccc1NC(=O)NCCCN1CCN(C)CC1	β-galactosidase in CMV-LacZ C2C12 myoblasts	0.8347
O=C(NCc1ccccc1)C(c1c(F)cccc1Cl)N(C(=O)c1csnn1)C1CC1 (stereo not drawn)	β-galactosidase in CMV-LacZ C2C12 myoblasts	0.7607
CCc1ccc(S(=O)(=O)NCCOc2cccc3cccnc23)cc1	β-galactosidase in CMV-LacZ C2C12 myoblasts	0.9538
O=C(CSc1nnc2c(n1)[nH]c1ccccc12)NCc1ccccc1F	β-galactosidase in CMV-LacZ C2C12 myoblasts	1.0843
O=c1[nH]c2ccccc2nc1-c1c[nH]c2ccccc12	β-galactosidase in CMV-LacZ C2C12 myoblasts	0.9273
O=C(NCCc1ccc(Cl)cc1)C1CCCO1 (stereo not drawn)	β-galactosidase in CMV-LacZ C2C12 myoblasts	1.0883
O=C(COc1ccc(Cl)cc1)N1CCN(C2CCCC2)CC1.O=C(O)C(=O)O	β-galactosidase in CMV-LacZ C2C12 myoblasts	1.0538
Cc1ccccc1-n1c(Cc2cccs2)n[nH]c1=S	β-galactosidase in CMV-LacZ C2C12 myoblasts	0.9372
COc1ccc(CNC(=O)C2CCCN(S(=O)(=O)c3c(C)noc3/C=C/N(C)C)C2)cc1 (stereo not drawn)	β-galactosidase in CMV-LacZ C2C12 myoblasts	0.9629
Cn1c(O)c(C(C#N)=C2N=c3ccccc3=N2)c2ccccc21	β-galactosidase in CMV-LacZ C2C12 myoblasts	0.7412
CC1CCN(C(CNS(=O)(=O)c2ccccc2)c2ccccc2)CC1 (stereo not drawn)	β-galactosidase in CMV-LacZ C2C12 myoblasts	1.3505
CC(=O)Nc1ccc(NC(=O)C/C(C)=N/NC(=O)COc2cc(C)c(Br)cc2Br)cc1	β-galactosidase in CMV-LacZ C2C12 myoblasts	0.9150
CSc1ccc(S(=O)(=O)NCc2ccccc2)cc1	β-galactosidase in CMV-LacZ C2C12 myoblasts	1.5065
c1ccc(-c2cc(-c3nc4ccccc4[nH]3)c3ccccc3n2)cc1	β-galactosidase in CMV-LacZ C2C12 myoblasts	1.3983
COCCSc1ccccc1C(=O)Nc1cc(C)cc(C)c1	β-galactosidase in CMV-LacZ C2C12 myoblasts	0.9289
CCCn1c(-c2cc(OC)c(OC)c(OC)c2)nc2c1c(=O)[nH]c(=O)n2Cc1ccccc1	β-galactosidase in CMV-LacZ C2C12 myoblasts	0.9721
CC(C)(C)NC(=O)NC(=O)CN1CCN(Cc2ccccc2)CC1	β-galactosidase in CMV-LacZ C2C12 myoblasts	0.7663
